Values of IC50 for Pro-cathepsin H (Homo sapiens, UniProt P09668), collected from a number of published sources:

Input line: Using the record for `CCCC[C@H](NC(=O)OCC1(Cc2ccccc2)CCC1)C(=O)C(=O)N[C@H](C)c1ccccc1` , report its IC50.
Output line: > 5000 nM

Input line: Now try CCCC[C@H](NC(=O)OC1C[C@H](C)C[C@@H](C)C1)C(=O)C(=O)N[C@H](C)c1ccccc1 (some centres undefined) .
Output line: > 13000 nM

Input line: Now try C[C@@H](CC1CCCCC1)OC(=O)C1CCCN1C#N (some centres undefined) .
Output line: 580 nM

Input line: Now try `CCCC[C@H](NC(=O)OCC1(Cc2ccc(F)cc2)CCC1)C(=O)C(=O)Nc1ccn[nH]1` .
Output line: > 500 nM

Input line: Now try `CC[C@H](N)C(=O)N[C@H](C#N)Cc1ccc(-c2ccccc2)cc1` .
Output line: > 10000 nM

Input line: Now try CCCC[C@H](NC(=O)OC1C2CC3CC(C2)CC1C3)C(=O)C(=O)N[C@H](C)c1ccccc1 (some centres undefined) .
Output line: > 5000 nM

Input line: Now try CCCC[C@H](NC(=O)OC1CC2CCC1C2)C(=O)C(=O)N[C@H](C)c1ccccc1 (some centres undefined) .
Output line: > 13000 nM

Input line: Now try `CCCC[C@H](NC(=O)O[C@@H]1C[C@H](C)C[C@H](C)C1)C(=O)C(=O)N[C@H](C)c1ccccc1` .
Output line: > 13000 nM

Input line: Now try `CCCC[C@H](NC(=O)O[C@H]1CCCc2ccccc21)C(=O)C(=O)N[C@H](C)c1ccccc1` .
Output line: > 2000 nM

Input line: Now try `CCCC[C@H](NC(=O)OCC1(CCc2ccccc2)CCC1)C(=O)C(=O)N[C@H](C)c1ccccc1` .
Output line: > 2000 nM

Input line: Now try C[C@@H](CC1CCCCC1)OC(=O)C1CCN1C#N (some centres undefined) .
Output line: 40 nM

Input line: Now try CCCC[C@H](NC(=O)OC1C2(C)CCC(C2)C1(C)C)C(=O)C(=O)N[C@H](C)c1ccccc1 (some centres undefined) .
Output line: > 13000 nM

Input line: Now try `CCCC[C@H](NC(=O)OCC1(CCCc2ccccc2)CCC1)C(=O)C(=O)N[C@H](C)c1ccccc1` .
Output line: > 2000 nM

Input line: Now try `CCNc1nc(C#N)nc2c1ncn2-c1cc(F)cc(F)c1` .
Output line: 646 nM
